src = patent US10221163B2

Target entity: NDM-1 (Klebsiella pneumoniae)
Sequence (C7C422 whole entry, looked up, species assumed): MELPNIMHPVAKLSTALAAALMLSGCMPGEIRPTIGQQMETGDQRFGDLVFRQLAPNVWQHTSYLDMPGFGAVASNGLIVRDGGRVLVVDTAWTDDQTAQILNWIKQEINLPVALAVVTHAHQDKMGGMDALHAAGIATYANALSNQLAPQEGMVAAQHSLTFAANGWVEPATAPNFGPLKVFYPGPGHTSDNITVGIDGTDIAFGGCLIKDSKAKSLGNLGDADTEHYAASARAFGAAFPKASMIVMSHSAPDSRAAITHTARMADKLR
Test method notes: biochemical
Assay type: biochemical
Assay setup: fluorescence assay, CCF2-FA substrate, 1 pM enzyme, 2 hours at 25° C.; read-out: NDM-1 IC50
Give measured pIC50 for each item. Keep answers brief.
Numbers only, as −log10 of the molar value.

Below: 5 compounds and their reported pIC50.
NCCNS(=O)(=O)c1ccc(-c2ccc3sc(CN)nc3c2)c(-c2nn[nH]n2)c1S(N)(=O)=O [Example 476]    9.57
C[C@H](N)c1nc2c(-c3ccc(S(=O)(=O)N[C@@H]4CCNC4)c(S(N)(=O)=O)c3-c3nn[nH]n3)cccc2[nH]1 [Example 272]    10.18
C[C@@H](N)CNS(=O)(=O)c1ccc(-c2ccc(N)nc2)c(-c2nn[nH]n2)c1S(N)(=O)=O [Example 480]    9.64
C[C@H](CN)NS(=O)(=O)c1ccc(-c2ccc(N)nc2)c(-c2nn[nH]n2)c1S(N)(=O)=O [Example 393]    10.66
Nc1nc2cccc(-c3ccc(S(N)(=O)=O)c(S(N)(=O)=O)c3-c3nn[nH]n3)c2[nH]1 [Example 1]    10.07

Batch: pIC50 for all items listed.
1. Nc1nc2c(-c3ccc(S(=O)(=O)N4CC5C(N)C5C4)c(S(N)(=O)=O)c3-c3nnn[nH]3)cccc2s1.O=C(O)C(F)(F)F (centres unmarked) [Example 113]
2. NS(=O)(=O)c1c(S(=O)(=O)NC[C@H]2CNCCN2)ccc(-c2cccc3[nH]cnc23)c1-c1nn[nH]n1 [Example 481]
3. C[C@@H](CCN)NS(=O)(=O)c1ccc(-c2ccc(N)nc2)c(-c2nn[nH]n2)c1S(N)(=O)=O [Example 499]
4. N[C@@H]1CNC[C@@H]1NS(=O)(=O)c1ccc(-c2cnc3cc[nH]c3c2)c(-c2nn[nH]n2)c1S(N)(=O)=O [Example 326]
5. CC(C)(N)CNS(=O)(=O)c1ccc(-c2cccc3sc(N)nc23)c(-c2nnn[nH]2)c1S(N)(=O)=O [Example 87]

Result:
1: 9.19; 2: 10.34; 3: 9.26; 4: 10.30; 5: 10.44

====

Give measured IC50 for each item. Keep answers brief.
Target entity: NDM-1 (Klebsiella pneumoniae)
Test method notes: biochemical
Assay type: biochemical
Assay setup: fluorescence assay, CCF2-FA substrate, 1 pM enzyme, 2 hours at 25° C.; read-out: NDM-1 IC50
One number for each entry, in nM.

CN(CCN)S(=O)(=O)c1ccc(-c2cccc3[nH]c(N)nc23)c(-c2nn[nH]n2)c1S(N)(=O)=O    7.73
NCc1nc2cc(-c3ccc(S(=O)(=O)NC[C@H](O)CN)c(S(N)(=O)=O)c3-c3nn[nH]n3)ccc2s1    0.145
NCCCNC(=O)c1cccc(-c2ccc(S(=O)(=O)NCCN)c(S(N)(=O)=O)c2-c2nn[nH]n2)c1    1.71
Nc1nc2c(-c3ccc(S(=O)(=O)NCC4(N)CC4)c(S(N)(=O)=O)c3-c3nn[nH]n3)cccc2s1    0.216
Cn1nnc2c(-c3ccc(S(=O)(=O)N[C@H]4CCNC4)c(S(N)(=O)=O)c3-c3nn[nH]n3)cccc21    0.285

Batch: IC50 for all items listed.
1. NCCNS(=O)(=O)c1ccc(-c2cccc3[nH]c([C@H](N)CO)nc23)c(-c2nn[nH]n2)c1S(N)(=O)=O
2. Cn1nc2cccc(-c3ccc(S(=O)(=O)N[C@@H]4CCNC4)c(S(N)(=O)=O)c3-c3nn[nH]n3)c2n1

Result:
[0.294, 0.0166]

====

Target entity: IMP-1 (Serratia marcescens, UniProt P52699)
Sequence (P52699 whole entry, looked up, species assumed): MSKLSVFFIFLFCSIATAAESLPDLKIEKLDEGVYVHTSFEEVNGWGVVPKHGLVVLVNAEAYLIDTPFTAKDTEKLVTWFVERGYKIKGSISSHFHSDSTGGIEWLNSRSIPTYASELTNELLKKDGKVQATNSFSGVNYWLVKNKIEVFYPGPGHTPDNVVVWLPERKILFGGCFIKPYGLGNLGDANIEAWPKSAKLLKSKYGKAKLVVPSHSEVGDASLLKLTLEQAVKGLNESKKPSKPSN
Test method notes: biochemical
Format: biochemical
Assay setup: fluorescence assay, CCF2-FA substrate, 2 pM enzyme, 2 hours at 25° C.; read-out: IMP-1 IC50
pIC50: −log10 of the molar value.
Param threshold (9) applies to pIC50; output rule met when value >= threshold, rule not met when value < threshold.

Some solved cases for reference:
NCCCNS(=O)(=O)c1ccc(-c2cccc3[nH]cnc23)c(-c2nn[nH]n2)c1S(N)(=O)=O    rule met
NCCNC(=O)c1cccc(-c2ccc(S(=O)(=O)NCCN)c(S(N)(=O)=O)c2-c2nn[nH]n2)c1N    rule not met
NC[C@H](O)CNS(=O)(=O)c1ccc(-c2ccc(N)nc2)c(-c2nn[nH]n2)c1S(N)(=O)=O    rule met

With those in mind, consider the next molecule.
Q: Answer whether pIC50 of NCCNS(=O)(=O)c1ccc(-c2cccc3[nH]c(N)nc23)c(-c2nn[nH]n2)c1S(N)(=O)=O is greater than or equal to 9.
Result: rule met

====

Target entity: UniProt C7C422
Test method notes: biochemical
Assay type: biochemical
Assay setup: fluorescence assay, CCF2-FA substrate, 1 pM enzyme, 2 hours at 25° C.; read-out: NDM-1 IC50
Give measured IC50 for each item. Keep answers brief.
Numbers only, in nM.

Below: 3 compounds and their reported IC50.
NCCNc1cc(-c2ccc(S(=O)(=O)NCCN)c(S(N)(=O)=O)c2-c2nn[nH]n2)ccn1 [Example 456]    1.56
NCCCNS(=O)(=O)c1ccc(-c2cc(F)cc3[nH]c(N)nc23)c(-c2nn[nH]n2)c1S(N)(=O)=O [Example 402]    0.0524
C[C@H](N)Cc1nc2c(-c3ccc(S(N)(=O)=O)c(S(N)(=O)=O)c3-c3nn[nH]n3)cccc2[nH]1 [Example 442]    0.431

Batch: IC50 for all items listed.
1. Nc1nc2c(-c3ccc(S(=O)(=O)NCC4COCCN4)c(S(N)(=O)=O)c3-c3nnn[nH]3)cccc2s1.O=C(O)C(F)(F)F (stereo not shown) [Example 96, 2,2,2-trifluoroacetate]
2. Nc1nc2c(-c3ccc(S(=O)(=O)N[C@H]4CO[C@H]5[C@@H]4OC[C@H]5N)c(S(N)(=O)=O)c3-c3nnn[nH]3)cccc2s1.O=C(O)C(F)(F)F [Example 103, 2,2,2-trifluoroacetate]
3. Nc1ccc(-c2ccc(S(=O)(=O)NCC3(O)CNC3)c(S(N)(=O)=O)c2-c2nn[nH]n2)cn1 [Example 495]
4. NCC(CN)NS(=O)(=O)c1ccc(-c2ccnc(-c3cnc(N)[nH]3)c2)c(-c2nnn[nH]2)c1S(N)(=O)=O [Example 437]
5. NCCN1CC[C@@H](NS(=O)(=O)c2ccc(-c3cccc4[nH]c(N)nc34)c(-c3nn[nH]n3)c2S(N)(=O)=O)C1 [Example 246]
6. NCc1nc2c(-c3ccc(S(=O)(=O)N[C@H](CN)CO)c(S(N)(=O)=O)c3-c3nn[nH]n3)cccc2s1 [Example 363]
7. NCCNS(=O)(=O)c1ccc(-c2cccc3[nH]c(C(F)(F)CN)nc23)c(-c2nn[nH]n2)c1S(N)(=O)=O [Example 445]
8. Nc1nc2c(-c3ccc(S(=O)(=O)NC[C@@H]4CCNC4)c(S(N)(=O)=O)c3-c3nnn[nH]3)cccc2s1 [Example 75]

Result:
[0.0757, 0.0293, 0.215, 1.18, 0.0405, 0.649, 0.0446, 0.0207]

Batch: IC50 for all items listed.
1. NCCNS(=O)(=O)c1ccc(-c2ccc3ncn(CCN)c3c2)c(-c2nn[nH]n2)c1S(N)(=O)=O [Example 348]
2. C[C@H](N)Cc1nc2c(-c3ccc(S(=O)(=O)N[C@@H]4CCNC4)c(S(N)(=O)=O)c3-c3nn[nH]n3)cccc2[nH]1 [Example 441]

Result:
[1.47, 0.0811]

====

Target entity: IMP-1 (Serratia marcescens, UniProt P52699)
Test method notes: biochemical
Type: biochemical
Assay setup: fluorescence assay, CCF2-FA substrate, 2 pM enzyme, 2 hours at 25° C.; read-out: IMP-1 IC50
Result type: pIC50
Give bare numbers, as −log10 of the molar value.

Below: 3 compounds and their reported pIC50.
NC[C@@H](CO)NS(=O)(=O)c1ccc(-c2cccc(N)n2)c(-c2nn[nH]n2)c1S(N)(=O)=O    9.19
Nc1nc2c(-c3ccc(S(=O)(=O)NCC4(O)CCNCC4)c(S(N)(=O)=O)c3-c3nnn[nH]3)cccc2s1    9.89
NS(=O)(=O)c1c(S(=O)(=O)N[C@@H]2CCNC2)ccc(-c2cccc3ncccc23)c1-c1nn[nH]n1    9.21

Batch: pIC50 for all items listed.
1. NCCNS(=O)(=O)c1ccc(-c2cccc3sc(N)nc23)c(-c2nn[nH]n2)c1S(N)(=O)=O
2. Nc1nc2c(-c3ccc(S(=O)(=O)N4CC5(CCNC5)C4)c(S(N)(=O)=O)c3-c3nnn[nH]3)cccc2s1
3. NCCNS(=O)(=O)c1ccc(-c2cccc3nonc23)c(-c2nn[nH]n2)c1S(N)(=O)=O
4. CN1CCCC(NS(=O)(=O)c2ccc(-c3cccc4sc(N)nc34)c(-c3nnn[nH]3)c2S(N)(=O)=O)C1 (centres unmarked)
5. Nc1nc2c(-c3ccc(S(=O)(=O)N[C@H]4CO[C@H]5[C@H]4OC[C@H]5O)c(S(N)(=O)=O)c3-c3nnn[nH]3)cccc2s1
6. N=C(N)c1nc2c(-c3ccc(S(N)(=O)=O)c(S(N)(=O)=O)c3-c3nn[nH]n3)cccc2s1
7. Nc1nc2c(-c3ccc(S(=O)(=O)N[C@@H]4CCNC4)c(S(N)(=O)=O)c3-c3nn[nH]n3)cccc2[nH]1
8. N[C@H]1C=C(c2ccc(S(=O)(=O)N[C@@H]3CCNC3)c(S(N)(=O)=O)c2-c2nn[nH]n2)CCC1

Result:
9.66
9.02
8.98
9.57
9.58
9.16
9.40
7.47

Batch: pIC50 for all items listed.
1. Nc1nc2c(-c3ccc(S(=O)(=O)N[C@@H]4CNC[C@@H]4O)c(S(N)(=O)=O)c3-c3nnn[nH]3)cccc2[nH]1
2. NCCCNS(=O)(=O)c1ccc(-c2cccc3sc(N)nc23)c(-c2nnn[nH]2)c1S(N)(=O)=O.O=C(O)C(F)(F)F [Example 90, 2,2,2-trifluoroacetate]
3. Cn1cnc(CNS(=O)(=O)c2ccc(-c3cccc4sc(N)nc34)c(-c3nnn[nH]3)c2S(N)(=O)=O)n1

Result:
[8.95, 9.39, 9.09]
